Consider the following compounds; for each one, report its Percent Effect.
- subject.of.test: Tyrosyl-tRNA synthetase, putative (Trypanosoma cruzi (strain CL Brener)) (UniProt Q4DSP6)
- Sequence (Q4DSP6 as listed by the source): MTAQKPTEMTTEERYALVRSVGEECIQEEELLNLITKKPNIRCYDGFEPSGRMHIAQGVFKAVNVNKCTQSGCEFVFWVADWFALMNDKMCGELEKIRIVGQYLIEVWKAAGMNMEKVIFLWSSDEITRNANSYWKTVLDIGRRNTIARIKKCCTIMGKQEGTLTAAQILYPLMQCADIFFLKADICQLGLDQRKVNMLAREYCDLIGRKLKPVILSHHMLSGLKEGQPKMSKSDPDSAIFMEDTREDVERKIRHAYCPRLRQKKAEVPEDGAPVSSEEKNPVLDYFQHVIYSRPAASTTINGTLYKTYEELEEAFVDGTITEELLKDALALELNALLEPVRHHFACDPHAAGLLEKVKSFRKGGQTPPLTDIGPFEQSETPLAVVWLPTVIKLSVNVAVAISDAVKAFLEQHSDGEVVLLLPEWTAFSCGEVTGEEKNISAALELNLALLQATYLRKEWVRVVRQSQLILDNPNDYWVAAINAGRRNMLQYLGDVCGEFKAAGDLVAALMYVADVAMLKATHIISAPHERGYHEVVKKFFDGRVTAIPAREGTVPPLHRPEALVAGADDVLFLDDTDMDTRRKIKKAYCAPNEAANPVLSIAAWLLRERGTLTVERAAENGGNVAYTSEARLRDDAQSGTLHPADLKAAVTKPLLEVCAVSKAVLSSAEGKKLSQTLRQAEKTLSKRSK
- experiment.summary: Trypanosoma cruzi tyrosyl tRNA synthetase (TcYRS) SOP
- Assay type: functional
- Set-up: scale not given: direction of the effect not stated beside the values
- conditions: 30 µM
// units = %; emit number, no label

Can you share its Percent Effect? I mean this compound: Cc1ccc(-c2cn[nH]c2C2CCCN(c3nccc(N)n3)C2)cc1 (stereo unspecified)
20.5

Then this compound: CO[C@H]1CCN(C(=O)Cc2ccccn2)[C@H]1Cc1ccncc1
11.5

Then this compound: CCc1nc(C2CCCN(C(=O)c3ccc(OC(C)C)nc3)C2)no1 (stereo unspecified)
0

Then this compound: Cc1cccc(NC(=O)NCCCn2nc3ccccn3c2=O)c1C
6.17

Then this compound: CC(c1cccc(S(N)(=O)=O)c1)N(C)CCOc1ccccc1 (stereo unspecified)
-2.35

Then this compound: O=C(c1coc(COc2cccc(F)c2)n1)N1CC[C@H](O)[C@@H](O)C1
9.76

Then this compound: Cn1cc(CN2CCOCC3(C2)CN(c2ccccc2)C(=O)CO3)cn1 (stereo unspecified)
10.3

Then this compound: CCOC(=O)N1CCN(C(=O)c2sc(-c3ccccc3F)nc2C)CC1
14.6

Then this compound: Cc1nn(C)c(Cl)c1C(=O)NCC(c1ccsc1)N(C)C (stereo unspecified)
16.5

Then this compound: Cc1cnn(CC2CCCN2Cc2coc(-c3cccs3)n2)c1 (stereo unspecified)
10

Then this compound: CS(=O)(=O)CC(=O)N1C[C@@H]2COC[C@]2(c2nnc(C3CC3)o2)C1
22.5

---

- subject.of.test: Tyrosyl-tRNA synthetase, putative (Trypanosoma cruzi (strain CL Brener)) (UniProt Q4DSP6)
- experiment.summary: Trypanosoma cruzi tyrosyl tRNA synthetase (TcYRS) SOP
- Format: functional
- Design: scale not given: direction of the effect not stated beside the values
- conditions: 30 µM
Consider the following compounds; for each one, report its Percent Effect.

Can you share its Percent Effect? I mean this compound: O=C(NCc1cc[nH]n1)N(CCCO)C1CCc2ccccc21 (configuration not stated)
2.56%

Then this compound: CCc1nc(C2CCCN2C(=O)CCc2ccc3c(c2)OCO3)no1 (configuration not stated)
1.22%

Then this compound: CCn1cc(CN2CCc3nc(N4CCOCC4)nc(O)c3CC2)cn1
9.09%

Then this compound: Cc1cc(C(=O)N2CCCCC2c2nc(C)cs2)[nH]n1 (configuration not stated)
12.2%

Then this compound: CCn1ccnc1CNCC1CCCN1c1cccnn1 (configuration not stated)
12.8%

Then this compound: O=C1CCSCC(C(=O)N2CCN(C3CCCCC3)CC2)N1 (configuration not stated)
12.5%

Then this compound: CC(C)[C@H](NC(=O)NC1CCS(=O)(=O)C1)C(=O)NCc1ccccc1Cl (some centres not stated)
-2.56%

Then this compound: CC(C)c1nc(C2CCCN(Cc3nnc(C4CC4)o3)C2)no1 (configuration not stated)
-2.56%

Then this compound: CC(=O)N1CCCn2nc(CNS(=O)(=O)c3cc(C)cs3)cc2C1
7.32%

Then this compound: Cc1cccc(-c2ccc3nc(C4CCN(CC5CC5)CC4)nn3c2)c1
8.64%

Then this compound: O=C(Nc1nncs1)NC1CCOc2ccccc21 (configuration not stated)
13.6%

Then this compound: CCN1CCN(CC(O)c2ccc(F)cc2)CC1 (configuration not stated)
13.6%

---

- System: Trypanosoma cruzi
- experiment.summary: Trypanosoma cruzi phosphomannomutase and mannose-1-phosphate guanylyltransferase assay
- Type: functional
- Design: scale not given: direction of the effect not stated beside the values
- conditions: 10 µM
parameter: Percent Effect (%)
// units = %; emit number, no label

Can you share its Percent Effect? I mean this molecule: Cc1nn(C)c2c(NCc3ccccc3F)nc(C3CC3)nc12
9.14

Then this molecule: O=C1CCCN1Cc1nnc2n1CCN(Cc1ccoc1)CC2
-3.94

Then this molecule: Cc1cccc(CS(=O)(=O)NCC(O)Cc2ccccc2)c1 (configuration not stated)
3.33

Then this molecule: Cn1cc(CN2CCCn3cnc(CN4CCCC4=O)c3C2)cn1
-1.74

Then this molecule: Cn1cc(-c2nc(CN3CCc4c(ncn4C4CC4)C3)cs2)cn1
3.54

Then this molecule: CC(NC(=O)NCc1ccc(Cl)s1)c1ccccn1 (configuration not stated)
-3.38

Then this molecule: O=C(Nc1ccccc1)c1nn(C2CCS(=O)(=O)C2)c2c1CCCC2 (configuration not stated)
-1.07

Then this molecule: O=C(c1ccncc1)N1C[C@@H]2CC[C@H](C1)N(C(=O)N1CCOCC1)C2
-4.38

Then this molecule: CC(C)(C)C(=O)N1CCC(c2nc(O)cc(-c3ccccn3)n2)CC1
-0.79

Then this molecule: Cc1ncccc1O[C@H]1CCN(C(=O)Cc2cccs2)CC[C@@H]1O
1.18

Then this molecule: c1cncc(CN2CCc3ncnc(C4CCOC4)c3CC2)c1 (configuration not stated)
-4.92

Then this molecule: CCOc1ncccc1NC(=O)N1CCCCCC1
-0.836

---

- subject.of.test: Protein translocase subunit SecA (Escherichia coli (strain K12)) (UniProt P10408)
- Sequence (P10408 whole entry): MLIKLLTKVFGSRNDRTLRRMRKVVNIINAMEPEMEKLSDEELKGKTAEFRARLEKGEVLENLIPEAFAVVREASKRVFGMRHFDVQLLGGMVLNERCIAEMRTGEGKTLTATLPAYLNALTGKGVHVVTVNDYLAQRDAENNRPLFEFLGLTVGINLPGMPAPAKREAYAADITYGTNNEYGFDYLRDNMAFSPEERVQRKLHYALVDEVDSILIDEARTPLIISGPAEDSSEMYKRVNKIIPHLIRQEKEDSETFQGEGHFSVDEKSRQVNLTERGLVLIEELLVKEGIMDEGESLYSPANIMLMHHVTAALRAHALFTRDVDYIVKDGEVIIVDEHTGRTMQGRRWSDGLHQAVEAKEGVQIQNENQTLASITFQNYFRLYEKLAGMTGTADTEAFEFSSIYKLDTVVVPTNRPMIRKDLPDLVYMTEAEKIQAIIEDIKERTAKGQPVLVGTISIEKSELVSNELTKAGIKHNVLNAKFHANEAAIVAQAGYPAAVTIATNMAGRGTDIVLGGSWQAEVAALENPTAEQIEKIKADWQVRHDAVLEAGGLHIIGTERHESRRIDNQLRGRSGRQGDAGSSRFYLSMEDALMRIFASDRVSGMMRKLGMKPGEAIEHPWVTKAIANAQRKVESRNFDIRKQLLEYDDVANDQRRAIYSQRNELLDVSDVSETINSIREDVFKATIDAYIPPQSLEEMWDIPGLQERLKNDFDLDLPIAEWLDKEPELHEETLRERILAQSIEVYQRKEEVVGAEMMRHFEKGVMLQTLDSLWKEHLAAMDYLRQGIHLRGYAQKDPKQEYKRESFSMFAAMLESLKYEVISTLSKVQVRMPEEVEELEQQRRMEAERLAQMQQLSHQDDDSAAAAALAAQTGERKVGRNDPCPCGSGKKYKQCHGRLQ
- experiment.summary: Assay to Identify E. coli SecA ATPase Inhibitors
- Assay type: functional
- Parameters: scale not given: direction of the effect not stated beside the values
- conditions: 30 µM
Measured potencies and affinities stand elsewhere.
parameter: Percent Effect (%)
// units = %; emit number, no label

Can you share its Percent Effect? I mean this compound: CN(C)C(=O)c1nc2c(s1)CCN(C(=O)c1ccc(Cl)cc1)CC2
-2.69

Then this compound: COc1ccc(CNC(=O)NC(C)Cn2cccn2)cc1O (stereo unspecified)
-1.61

Then this compound: Cc1cc(F)ccc1OC1(C(=O)O)CCN(Cc2ccncc2)CC1
-4.32

Then this compound: COC(=O)C1CCN(C(=O)CN2CCN(c3cccc(C)c3)CC2)CC1
-1.93

Then this compound: Cc1ccc(NC(=O)c2cc(S(=O)(=O)N3CCCCC3)c[nH]2)cc1F
-2.47

Then this compound: O=C(c1ccncc1)N1CCC2(CC1)CC(Oc1cccnc1)CO2 (stereo unspecified)
-6.1

---

Consider the following compounds; for each one, report its Percent Effect.
- subject.of.test: Protein translocase subunit SecA (Escherichia coli (strain K12)) (UniProt P10408)
- experiment.summary: Assay to Identify E. coli SecA ATPase Inhibitors
- Assay type: functional
- Set-up: scale not given: direction of the effect not stated beside the values
- conditions: 30 µM
Entries with a potency or affinity are not part of this list.
// units = %; emit number, no label

Can you share its Percent Effect? I mean this compound: COc1ccc(NC(=O)Cn2nc(C)ccc2=O)cc1OC
-3.84

Then this compound: CCn1cc(C(=O)N2CCCC(c3[nH]ncc3S(C)(=O)=O)C2)cn1 (stereo unspecified)
-2.25

Then this compound: CC(=O)N(Cc1ncc(C)o1)C1CCN(CCCc2cnn(C)c2)C1 (stereo unspecified)
-1.84

Then this compound: Cc1nc(CN2CCCC(CCc3ccc(F)cc3F)C2)c[nH]1 (stereo unspecified)
-4.78

Then this compound: CCc1cnc2c(c1NCc1ccncc1)c(=O)n(C)c(=O)n2C
0.985

Then this compound: O=S1(=O)N=C(SCc2ccc(Cl)cc2)Nc2ccc(F)cc21
-2.41

Then this compound: CCCN(CCO)C(=O)C1CCC(=O)N(CCc2ccc(Cl)cc2)C1 (stereo unspecified)
0.568

Then this compound: COCCN1CCc2cc(C(=O)NCC3CC3)c(NC(C)C)nc2CC1
-2.06

Then this compound: Cc1nn(C)c(C)c1NC(=O)CCn1ncc2c(C)cccc21
-5.82

Then this compound: COc1cccc(CN(C)Cc2ccc(C#N)cc2)c1OC
-2.85

Then this compound: Cc1cc(C)n(CC2CN(Cc3cscn3)CCO2)n1 (stereo unspecified)
-2.86

---

- Species on record: Homo sapiens
- experiment.summary: To identify inhibition of the IFN signalling (Jak-Stat) pathway via expression of an eGFP reporter gene under the control of an IFN-stimulated response element (ISRE) containing MxA promoter.
- Type: functional
- Design: scale not given: direction of the effect not stated beside the values
- conditions: 30 µM
Consider the following molecules; for each one, report its Percent Effect.
// units = %; emit number, no label

Can you share its Percent Effect? I mean this molecule: CC(=O)N(Cc1ncc(C)o1)C1CCN(CCCc2cnn(C)c2)C1 (centres undefined)
2.97

Then this molecule: Cc1ncc2c(n1)CN(Cc1nc3ccccc3o1)CC2
-20.5

Then this molecule: COCCCN(C)C1CCCN(Cc2noc(C)n2)C1 (centres undefined)
11.9

Then this molecule: Cc1nnc(NC(=O)NC2CCOc3ccccc32)s1 (centres undefined)
-9.09

Then this molecule: COc1ccc(Nc2nc3c(C)nn(C)c3c(=O)n2C)c(OC)c1
0.301

Then this molecule: c1cnn(CC2CN(Cc3noc(C4CC4)n3)CCO2)c1 (centres undefined)
7.98

Then this molecule: CCc1c(C)nn(CCNC(=O)C2CCCN(C(=O)N(C)C)C2)c1C (centres undefined)
10.5

Then this molecule: CCOc1cccc2c1OCC(C(=O)NS(=O)(=O)Cc1ccccc1)=C2
24.4

Then this molecule: Cn1nc(C(=O)N2CCCCC2c2nc3cc(F)ccc3[nH]2)ccc1=O (centres undefined)
-6.87

Then this molecule: CCn1nc(C)c(CCNC(=O)C2CCCN(C(=O)N(C)C)C2)c1C (centres undefined)
8.52

Then this molecule: O=C(NCCCN1CCCCC1)c1ccc(-n2ccc3ccccc32)s1
22.6

Then this molecule: CCn1ncc2c1C(COC)CN(Cc1ccc(OC)cc1)C2 (centres undefined)
40

Then this molecule: CC(C)c1nc2n(n1)CC(NCc1ncc(-c3ccccc3)o1)CC2 (centres undefined)
8.03

Then this molecule: CCn1ccnc1CN1CCCN(C(=O)c2sccc2C#N)CC1
-12.1

Then this molecule: CC(C)c1nnc2n1CCN(C(=O)c1ccc(OCC(N)=O)cc1)C2
4.02

Then this molecule: CC(=O)NCCNC(=O)c1sc(-c2ccc(Cl)s2)nc1C
11.1

Then this molecule: NC(=O)c1cccc(CC2CCN(C(=O)CO)C2)c1 (centres undefined)
2.47

Then this molecule: Cc1cnc(C(=O)N(CCN(C)C)Cc2ccc(Cl)cc2)cn1
-3.66

Then this molecule: CN1CCOC(CNCc2coc(-c3cccs3)n2)C1 (centres undefined)
12.8

Then this molecule: CC(=O)c1cccc(NC(=O)CN2CCCCC2C2OCCO2)c1 (centres undefined)
-2.75

Then this molecule: CC(C)(CNC(=O)NCCOc1cccc(F)c1)C(N)=O
-5.69

Then this molecule: CCc1n[nH]c(C2CN(C(=O)CCc3cccs3)CCO2)n1 (centres undefined)
1.68

Then this molecule: Cc1cc(-c2ccc(C(=O)O)cc2)nc(C2CCCN(C(C)C)C2)n1 (centres undefined)
4.86

Then this molecule: NC(=O)C1CCN(C(=O)c2cccc(OCc3cscn3)c2)CC1
26.4
